Catalogue of compounds with associated Hepatotoxicity (steatosis)
conditions: human
Outcome measure: Hepatotoxicity (steatosis)

In [3]: df
Out[3]:
                                   compound  experimental_result
0  CN1C2CCCC1CC(NC(=O)c1nn(C)c3ccccc13)C2 (centres undefined)                    0
1  Cc1cn([C@H]2C[C@H](N=[N+]=[N-])[C@@H](CO)O2)c(=O)[nH]c1=O                   17
2            CCCSc1ccc2nc(NC(=O)OC)[nH]c2c1                    0
3  CCC(=O)[C@@]1(C)CC[C@H]2[C@@H]3CCC4=CC(=O)CCC4=C3CC[C@@]21C                    0
4          O=C(O)CCC(=O)c1ccc(-c2ccccc2)cc1                    0
5  CC1(C)S[C@@H]2[C@H](NC(=O)[C@H](C(=O)O)c3ccsc3)C(=O)N2[C@H]1C(=O)O.O=C(O)[C@H]1/C(=C/CO)O[C@@H]2CC(=O)N21                    0
6                         Nc1nc(=O)[nH]cc1F                    0
7  O=C(O)Cc1nn(Cc2nc3cc(C(F)(F)F)ccc3s2)c(=O)c2ccccc12                    0
8  CC(C(=O)O)c1ccc(N2CC=CC2)c(Cl)c1 (centres undefined)                    2

----------
assay: Highest frequency of moderate liver toxicity observed during clinical trials, expressed as a percentage. [column '% BIOL' in source]; conditions: human
Outcome measure: Hepatotoxicity (moderate) (%)

In [3]: df
Out[3]:
                                   molecule  measure_unit  experimental_result
0  O=c1[nH]c(=O)n(C2CCCO2)cc1F (stereo not given)             %                 17.5
1  Cc1nc2ccc(CN(C)c3ccc(C(=O)N[C@@H](CCC(=O)O)C(=O)O)s3)cc2c(=O)[nH]1             %                  100
2              CC[C@@H](CO)NCCN[C@@H](CC)CO             %                    0
3  CC(=O)[C@H]1CC[C@H]2[C@@H]3CCC4=CC(=O)CC[C@]4(C)[C@H]3CC[C@]12C             %                 13.3
4      C=C(CC)C(=O)c1ccc(OCC(=O)O)c(Cl)c1Cl             %                    0

----------
assay: Highest frequency of acute liver toxicity observed during clinical trials, expressed as a percentage. [column '% AIGUE' in source]; conditions: human
Catalogue of molecules with associated Hepatotoxicity (acute)
Outcome measure: Hepatotoxicity (acute)

>>> print(df.to_string())
                                   molecule  experimental_result
0  CNC(=O)c1cccc2c(Nc3ccc(NS(C)(=O)=O)cc3OC)c3cccc(C)c3nc12                   0%
1   O=C1Nc2ccccc2C1(c1ccc(O)cc1)c1ccc(O)cc1                   0%
2  CO[C@H]1O[C@@H]2O[C@@]3(C)CC[C@H]4[C@H](C)CC[C@@H]([C@H]1C)[C@@]24OO3                   0%
3               [N-]=[N+]=O [NITROUS OXIDE]                   0%
4  CCCNC(=O)NS(=O)(=O)c1ccc(Cl)cc1 [CHLORPROPAMIDE]                 0.5%
5  N[C@@H](Cc1cc(I)c(Oc2cc(I)c(O)c(I)c2)c(I)c1)C(=O)O                   0%
6  CC(C(=O)O)c1ccc(C(=O)c2ccccc2)s1 (stereo not given)                   0%
7  CCCCC(C)(O)C/C=C/[C@H]1[C@H](O)CC(=O)[C@@H]1CCCCCCC(=O)OC (stereo not given in full)                   0%
8   CC12CCC(CC1=O)C2(C)C (stereo not given)                   0%
9        CN1CCN(CCCN2c3ccccc3Sc3ccccc32)CC1                 0.3%
